Experiment: Cytotoxicity against Vero cells (resazurin)
Conditions: African green monkey
measurement.kind: IC50 at 72 h

stdin: Need IC50 at 72 h, item CC(=O)OC/C=C(\C)CCC=C(C)C [Compound 11, geranyl acetate]
stdout: > 200 µg/mL

###

Experiment: Cytotoxicity against Vero cells (resazurin)
Settings: African green monkey, Vero cells (ATCC CRL-1586)
measurement.kind: IC50 at 72 h (µg/mL)
Express your answer in µg/mL, writing the number without its unit.

stdin: Need IC50 at 72 h, item OC/C=C/CCCC/C=C/CO
stdout: 72.9

stdin: Need IC50 at 72 h, item CC(=O)OC/C=C/CC/C=C/COC(C)=O
stdout: 76.8

Values from paper PMC9823811
